// reported inhibition at 10 µM for each item listed
tested-target: CXCR3 (Homo sapiens, UniProt P49682)
Construct: expressed in transfected cells; membrane preparation
Sequence (P49682 whole entry): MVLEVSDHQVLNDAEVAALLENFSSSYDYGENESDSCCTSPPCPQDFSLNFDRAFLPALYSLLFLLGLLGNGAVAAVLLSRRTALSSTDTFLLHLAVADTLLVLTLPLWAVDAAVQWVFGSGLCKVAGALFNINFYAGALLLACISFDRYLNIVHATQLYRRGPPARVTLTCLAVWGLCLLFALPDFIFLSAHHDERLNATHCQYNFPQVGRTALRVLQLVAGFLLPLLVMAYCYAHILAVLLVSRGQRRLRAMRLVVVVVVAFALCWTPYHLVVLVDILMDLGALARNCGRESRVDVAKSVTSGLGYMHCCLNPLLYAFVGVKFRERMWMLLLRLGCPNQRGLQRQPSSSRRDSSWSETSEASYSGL
assay-details: CXCR3/IP-10 radioligand binding (125I-IP-10 competition on CXCR3.L1/2 cell membranes)
recorded-conditions: test compound 10 μmol/L; 125I-labeled IP-10 binding to CXCR3.L1/2 transfectant cell membranes; results Table 6

# molecule, unit-annotation, inhibition at 10 µM
data = [
    ("CCCN(C(=O)CCN1CCN(Cc2cc(Cl)cc(Cl)c2)C1=C(C#N)C#N)c1cc(CN2CCCCC2)ccc1C", "%", 94),
    ("Cc1cccc(CN2CCN(CCC(=O)N(c3cccc(CN4CCCCC4)c3)C(C)C)C2=C(C#N)C#N)c1C", "%", 105),
    ("CCCN(C(=O)CCN1CCN(Cc2cc(Cl)cc(Cl)c2)C1=C(C#N)C#N)c1cc(CN2CCCCC2)ccc1Cl", "%", 101),
    ("CCN(CC)Cc1cccc(N(C(=O)CCN2CCN(Cc3cc(C)cc(C)c3)C2=C(C#N)C#N)C(C)C)c1", "%", 90),
    ("CC(C)N(C(=O)CCN1CCN(C2Cc3cccc4cccc2c34)C1=C(C#N)C#N)c1cccc(CN2CCCCC2)c1 (centres unmarked)", "%", 95),
]

Where do these numbers come from? They come from patent US20040122026A1.
